Origin of the recorded values: patent US12492182B2

TEST NAME: Measurement of solubility in Britton-Robinson buffer solution (pH 8.5) containing 0.5 W/V % polysorbate 80
Type: physicochemical
MEASUREMENT CONTEXT: Britton-Robinson buffer pH 8.5 containing 0.5 W/V % polysorbate 80, 20° C., 18 hr
Please mark Satisfied if the recorded 0.5% polysorbate 80 solubility (%) at pH 8.5 is equal to or greater than 0.06%, and Not satisfied if it falls below.

Please review the entries below; each comes with its answer.
[[record]]
structure = "CO[C@](C)(C(=O)NCc1ccc(Cl)c(-c2nc(O)nc(-c3cccc(C(C)(C)C)c3)n2)c1)C(F)(F)F"
class_name = "Satisfied"

[[record]]
structure = "CCC[C@H](C)Oc1ccc(-c2nc(O)nc(-c3cc(CNC(=O)C(CC)(CC)CF)ccc3Cl)n2)cn1"
class_name = "Satisfied"

[[record]]
structure = "CCC[C@@H](C)Oc1ccc(-c2nc(O)nc(-c3cc(CNC(=O)C(CC)(CC)OC)ccc3Cl)n2)cn1"
class_name = "Satisfied"


Req: Threshold query (0.5% polysorbate 80 solubility (%) at pH 8.5 >= 0.06%) on CC(C)c1cccc(-c2nc(O)nc(-c3cc(CNC(=O)C4(C(F)(F)F)CCCCC4)ccc3Cl)n2)c1
Resp: Not satisfied

Req: Threshold query (0.5% polysorbate 80 solubility (%) at pH 8.5 >= 0.06%) on CCCCCCOc1ccc(-c2nc(O)nc(-c3cc(CNC(=O)C(C)(C)OC)ccc3Cl)n2)cn1
Resp: Satisfied

Req: Threshold query (0.5% polysorbate 80 solubility (%) at pH 8.5 >= 0.06%) on CC(C)(C)c1cccc(-c2nc(O)nc(-c3cc(CNC(=O)C4(C(F)(F)F)CCCCC4)ccc3Cl)n2)c1
Resp: Not satisfied

---

TARGET OR TEST SYSTEM: human mPGES-1 (Homo sapiens)
VALUE KIND: IC50 (nM)
Give bare numbers, in nM.

[[record]]
molecule = "CCCOCCOc1ccc(-c2nc(O)nc(-c3cc(CNC(=O)C4(C(F)(F)F)CCCCC4)ccc3Cl)n2)cn1 [Example 69]"
value_kind = "IC50"
data_value = 2.3

[[record]]
molecule = "CO[C@@](C)(C(=O)NCc1ccc(Cl)c(-c2nc(O)nc(-c3cccc(C(C)C)c3)n2)c1)C(F)(F)F [Example 74]"
value_kind = "IC50"
data_value = 1.3

[[record]]
molecule = "CCC[C@@H](C)Oc1ccc(-c2nc(O)nc(-c3cc(CNC(=O)[C@@](C)(OC)C(F)(F)F)ccc3Cl)n2)cn1 [Example 80]"
value_kind = "IC50"
data_value = 2.7

[[record]]
molecule = "CC1(c2cccc(-c3nc(O)nc(-c4cc(CNC(=O)C5(C(F)(F)F)CCCC5)ccc4Cl)n3)c2)CC1 [Example 63]"
value_kind = "IC50"
data_value = 1.7

[[record]]
molecule = "CO[C@](C)(C(=O)NCc1ccc(Cl)c(-c2nc(O)nc(-c3ccc(Cl)c(C(C)C)c3)n2)c1)C(F)(F)F [Example 56]"
value_kind = "IC50"
data_value = 0.7


// for each molecule in input: emit IC50
1. CCC(OC)(C(=O)NCc1ccc(Cl)c(-c2nc(O)nc(-c3cccc(C(C)(C)C)c3)n2)c1)C(F)(F)F (stereo not shown) [Example 135]
2. CC1(c2cccc(-c3nc(O)nc(-c4cc(CNC(=O)C(C)(C(F)(F)F)C(F)(F)F)ccc4Cl)n3)c2)CC1 [Example 89]

Resp:
1: 2; 2: 3.7

---

Field: log10(IC50). Provide a value for each of the compounds that follow.
TARGET OR TEST SYSTEM: human mPGES-1 (Homo sapiens)
Sequence (O14684 1-152): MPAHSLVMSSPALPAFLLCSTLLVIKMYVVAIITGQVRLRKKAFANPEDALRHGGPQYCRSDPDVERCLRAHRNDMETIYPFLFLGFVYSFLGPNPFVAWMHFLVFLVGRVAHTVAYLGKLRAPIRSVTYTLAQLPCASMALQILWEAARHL
Scale: decimal log of IC50, IC50 in nM.

Some entries whose results are on file:
[[record]]
structure = "CCC(CC)(C(=O)NCc1ccc(Cl)c(-c2nc(O)nc(-c3ccc(Cl)c(C(C)C)c3)n2)c1)C(F)F"
target_or_test_system = "human mPGES-1 (Homo sapiens)"
value_kind = "log10(IC50)"
data_value = 0.26

[[record]]
structure = "CCCCC(C)(C)C(=O)NCc1ccc(Cl)c(-c2nc(O)nc(-c3ccc(OCC)nc3)n2)c1"
target_or_test_system = "human mPGES-1 (Homo sapiens)"
value_kind = "log10(IC50)"
data_value = -0.22

[[record]]
structure = "CCCCC(C)(C)C(=O)NCc1ccc(Cl)c(-c2nc(O)nc(-c3ccc(OCCC)nc3)n2)c1"
target_or_test_system = "human mPGES-1 (Homo sapiens)"
value_kind = "log10(IC50)"
data_value = 0.32

[[record]]
structure = "CC(C)c1cc(-c2nc(O)nc(-c3cc(CNC(=O)C4(CF)CCCC4)ccc3Cl)n2)ccc1Cl"
target_or_test_system = "human mPGES-1 (Homo sapiens)"
value_kind = "log10(IC50)"
data_value = 0.28

[[record]]
structure = "CC(C)(C)c1cccc(-c2nc(O)nc(-c3cc(CNC(=O)C4(CF)CCCCC4)ccc3Cl)n2)c1"
target_or_test_system = "human mPGES-1 (Homo sapiens)"
value_kind = "log10(IC50)"
data_value = 0.23

[[record]]
structure = "CCCOc1ccc(-c2nc(O)nc(-c3cc(CNC(=O)C(C)(C)C(F)(F)F)ccc3Cl)n2)cc1C(C)C"
target_or_test_system = "human mPGES-1 (Homo sapiens)"
value_kind = "log10(IC50)"
data_value = 1.08


Could you now consider this next compound?
Req: For human mPGES-1 (Homo sapiens), provide log10(IC50) of CC(C)c1cc(-c2nc(O)nc(-c3cc(CNC(=O)C4(C(F)F)CCCCC4)ccc3Cl)n2)ccc1Cl please.
Resp: 0.38

---

Protein target, amino acids: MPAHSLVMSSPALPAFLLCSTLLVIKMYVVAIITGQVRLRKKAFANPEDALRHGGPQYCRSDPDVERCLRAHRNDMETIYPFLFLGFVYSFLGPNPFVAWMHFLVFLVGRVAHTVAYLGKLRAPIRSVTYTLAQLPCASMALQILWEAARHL
Field: IC50. Provide a value for each of the compounds that follow.
Give bare numbers, in nM.

// for each compound in input: emit IC50
1. CCOc1ccc(-c2nc(O)nc(-c3cc(CNC(=O)C4(C(F)(F)F)CCCC4)ccc3Cl)n2)cn1
2. CC(C)(C)COc1ccc(-c2nc(O)nc(-c3cc(CNC(=O)C(C)(C)C(F)(F)F)ccc3Cl)n2)cn1
3. CCC(CC)(C(=O)NCc1ccc(Cl)c(-c2nc(O)nc(-c3cccc(C4(C)CC4)c3)n2)c1)C(F)F
4. Cc1ccc(-c2nc(O)nc(-c3cc(CNC(=O)C(C)(C)C(F)(F)F)ccc3Cl)n2)cc1C(C)C
5. COCCCCOc1ccc(-c2nc(O)nc(-c3cc(CNC(=O)C(C)(C)C(F)(F)F)ccc3Cl)n2)cn1

Resp:
1: 0.7; 2: 3.3; 3: 0.4; 4: 0.4; 5: 0.5

// for each compound in input: emit IC50
1. CCCCOc1cccc(-c2nc(O)nc(-c3cc(CNC(=O)C(C)(C)C(F)(F)F)ccc3Cl)n2)c1
2. CC(C)c1cc(-c2nc(O)nc(-c3cc(CNC(=O)C4(C(F)F)CCCC4)ccc3Cl)n2)ccc1Cl
3. CCOc1ccc(-c2nc(O)nc(-c3cc(CNC(=O)C4(OC)CCCC4)ccc3Cl)n2)cn1

Resp:
1: 2.1; 2: 3.8; 3: 3

// for each compound in input: emit IC50
1. COCC(C)(C)C(=O)NCc1ccc(Cl)c(-c2nc(O)nc(-c3cccc(C(C)C)c3)n2)c1
2. CCC[C@H](C)Oc1ccc(-c2nc(O)nc(-c3cc(CNC(=O)C(C)(C)C(F)(F)F)ccc3Cl)n2)cn1

Resp:
[3.2, 1.8]

// for each compound in input: emit IC50
1. CCCOc1ccc(-c2nc(O)nc(-c3cc(CNC(=O)C(C)(C)C(F)(F)F)ccc3Cl)n2)cn1
2. COc1ccc(-c2nc(O)nc(-c3cc(CNC(=O)C(C)(C)C(F)(F)F)ccc3Cl)n2)cc1C(C)C
3. CCC[C@@H](C)Oc1ccc(-c2nc(O)nc(-c3cc(CNC(=O)C(CC)(OC)C(F)(F)F)ccc3Cl)n2)cn1 (single isomer, unassigned)

Resp:
[1.1, 2, 7.7]

// for each compound in input: emit IC50
1. CC(C)c1cc(-c2nc(O)nc(-c3cc(CNC(=O)C4(CF)CCCCC4)ccc3Cl)n2)ccc1Cl
2. CO[C@](C)(C(=O)NCc1ccc(Cl)c(-c2nc(O)nc(-c3cccc(C4(C)CC4)c3)n2)c1)C(F)(F)F

Resp:
1: 2.1; 2: 1.1
